- measurement.notes: in vitro
- protocol.conditions: human, hela cells, % viability
Hi! Could you tag entries with viability at 28.5 h, 10 µM below 90% as label 1, and those at or above as label 0? Much appreciated.

{"compound": "Fc1ccc(-c2noc([C@@H]3CCCN3Cc3ncc[nH]3)n2)nc1", "class.assignment": "label 0"}
{"compound": "COc1ccc(CCNC(=O)N(CCC#N)C2CCCCC2)cc1OC", "class.assignment": "label 0"}
{"compound": "CN(C(=O)CN1CCN(c2cc(-c3cc4ccccc4o3)ncn2)CC1)c1ccccc1", "class.assignment": "label 0"}
{"compound": "CC(=O)Nc1ccc(CNc2ccc(C#N)cn2)cc1", "class.assignment": "label 0"}
{"compound": "Cn1c(C(=O)N2CCc3ccccc32)cc2ccccc21", "class.assignment": "label 0"}
{"compound": "Cc1ccc(OCC(=O)NC(=S)Nc2cc(-c3nc4ncccc4o3)ccc2Cl)cc1", "class.assignment": "label 0"}
{"compound": "COc1ncc(-c2cncc(N3CCN(CCO)CC3)n2)c(OC)n1", "class.assignment": "label 1"}
{"compound": "Cc1cc(C)n(Cc2cccc(C(=O)NC(C)Cc3ccccn3)c2)n1 (centres unmarked)", "class.assignment": "label 0"}
{"compound": "S=C1C=C(c2ccccc2)Nc2ccccc2N1", "class.assignment": "label 1"}
{"compound": "CN(C)c1cccc(Nc2ccc(-c3ccco3)cn2)c1", "class.assignment": "label 0"}

Does the reported viability at 28.5 h, 10 µM of Cc1cc(C(=O)N2CCC(Cc3ccccc3)CC2)n[nH]1 stay below 90%?
label 1

Does the reported viability at 28.5 h, 10 µM of O=C(NCC(F)(F)F)c1cnc(-c2ccc(Cl)cc2)c(-c2ccco2)c1 stay below 90%?
label 1

Does the reported viability at 28.5 h, 10 µM of O=C(c1ncccc1O)N1CC(O)CC1c1cc(F)ccc1F (centres unmarked) stay below 90%?
label 0

Does the reported viability at 28.5 h, 10 µM of N#Cc1c(N)nc(SCC(=O)c2cc3ccccc3oc2=O)c(C#N)c1-c1ccc(O)cc1 stay below 90%?
label 0

* * *

- measurement.notes: in vitro
- protocol.conditions: human, hela cells, % viability
# viability at 28.5 h, 10 µM per entry
The answer should read as a number with its unit following.

Some solved entries appear below for comparison.
{"molecule": "CCOC(=O)CN1C(=O)S/C(=C/c2cc(Cl)c(OCC(=O)O)c(Br)c2)C1=O [CBK264614]", "viability at 28.5 h, 10 µM": "106%"}
{"molecule": "Cc1cccnc1C(Cc1ccsc1)NC(=O)CCc1ccno1 (centres unmarked) [CBK284804]", "viability at 28.5 h, 10 µM": "86.7%"}

Given CC(NC(=O)c1nn(-c2ccc(F)cc2)c2c1CCCC2)c1ccc2c(c1)OCCO2 (centres unmarked) [CBK296682] , respond with its viability at 28.5 h, 10 µM.
103%

Given Cc1cccc(NC(=S)NNC(=O)CCC(=O)O)c1 [CBK261542] , respond with its viability at 28.5 h, 10 µM.
85.1%

Given COc1ccc(CN2CCN(S(C)(=O)=O)CC2)c(OC)c1OC [CBK074491] , respond with its viability at 28.5 h, 10 µM.
102%

Given CN(C)CC(=O)N1CCc2nc(-c3ccccc3F)sc2C1 [CBK281918] , respond with its viability at 28.5 h, 10 µM.
85.6%

Given Sc1nnc(-c2ccncc2)n1/N=C/c1cccnc1 [CBK265336] , respond with its viability at 28.5 h, 10 µM.
96.6%

Given COc1ccc([C@@]23CC=C(N(Cc4ccccc4)C(=O)Nc4ccc(F)c(F)c4)C[C@@H]2N(C)CC3)cc1OC [CBK050179] , respond with its viability at 28.5 h, 10 µM.
94.9%

* * *

# viability at 28.5 h, 10 µM per entry
- measurement.notes: in vitro
- protocol.conditions: human, hela cells, % viability
The answer should read as a number with its unit following.

Some solved entries appear below for comparison.
{"compound": "CC(C)n1ccc2cc(C(=O)NC3CCOC(C)(C)C3)ccc21 (stereo not shown) [CBK304366]", "viability at 28.5 h, 10 µM": "90.6%"}
{"compound": "COc1ccc(-c2ccccc2)cc1CN(Cc1ccc2c(c1)OCO2)CC(C)O (stereo not shown) [CBK286471]", "viability at 28.5 h, 10 µM": "89.7%"}

Given CCOC(=O)Cn1nc(-c2nonc2N)nc1-c1nonc1N [CBK265482] , respond with its viability at 28.5 h, 10 µM.
88.5%

Given Cc1c(F)cccc1CN(CCCN)C(=O)Nc1ccccc1C(C)(C)C [CBK034699C] , respond with its viability at 28.5 h, 10 µM.
89.3%

* * *

# viability at 28.5 h, 10 µM per entry
- measurement.notes: in vitro
- protocol.conditions: human, hela cells, % viability
The answer should read as a number with its unit following.

Some solved entries appear below for comparison.
{"compound": "Cc1ccc(CSCC(=O)NCCN2CCOCC2)cc1", "viability at 28.5 h, 10 µM": "90.4%"}
{"compound": "COCC(=O)Nc1ccc(Cl)c(NC(=O)NCCN2CCCC2=O)c1", "viability at 28.5 h, 10 µM": "87.9%"}
{"compound": "O=c1cc2nc(-c3ccccc3F)[nH]c(=S)n2[nH]1", "viability at 28.5 h, 10 µM": "95.5%"}

Given O=S(=O)(/N=C(/NS(=O)(=O)c1cccc2ccccc12)c1ccccc1)c1ccccc1 , respond with its viability at 28.5 h, 10 µM.
112%

Given CN(C1=NS(=O)(=O)c2ccccc21)c1ccccc1C(=O)O , respond with its viability at 28.5 h, 10 µM.
90%

Given O=C(Nc1ncn(CC(=O)N2CCCCCC2)n1)c1cccs1 , respond with its viability at 28.5 h, 10 µM.
78.1%

Given N#C/C(=C\c1cn(-c2ccccc2)nc1-c1ccc(S(=O)(=O)N2CCOCC2)cc1)c1nc2ccccc2c(=O)[nH]1 , respond with its viability at 28.5 h, 10 µM.
104%

Given Nc1nc(OCc2ccncc2)cnc1-c1cnn(Cc2ccccc2)c1 , respond with its viability at 28.5 h, 10 µM.
96.7%

Given CCn1cc(C(=O)N2CCCCC2c2nc3cc(C)ccc3[nH]2)cn1 (stereo not shown) , respond with its viability at 28.5 h, 10 µM.
84.6%

Given Cc1noc(C)c1S(=O)(=O)Nc1c(C(=O)N2CCN(C)CC2)[nH]c2ccccc12 , respond with its viability at 28.5 h, 10 µM.
98.9%

* * *

# viability at 28.5 h, 10 µM per entry
- measurement.notes: in vitro
- protocol.conditions: human, hela cells, % viability
Express it in %; write the number only.

{"molecule": "O=C(Nc1ccc(S(=O)(=O)Nc2nccs2)cc1)C1CC(=O)N(c2ccccc2)C1 (stereo not drawn) [CBK264732]", "viability at 28.5 h, 10 µM, %": 104}
{"molecule": "Nc1ncnc2c1C(c1ccc(Cl)cc1)c1c(ccc3ccccc13)O2 (stereo not drawn) [CBK263938]", "viability at 28.5 h, 10 µM, %": 101}
{"molecule": "FC(F)(F)c1nc2ccccc2nc1Sc1nc[nH]n1 [CBK093808]", "viability at 28.5 h, 10 µM, %": 87.6}
{"molecule": "CCOC(=O)c1c(NC(=O)CN2CCN(c3ccc(F)cc3)CC2)sc2c1CCCC2 [CBK265536]", "viability at 28.5 h, 10 µM, %": 88.3}
{"molecule": "CC1(C)SC(NCC2CCCCC2)=NC1=O [CBK067808]", "viability at 28.5 h, 10 µM, %": 91.2}

Given Cc1ccc(S(=O)(=O)c2ccc(C)c(S(=O)(=O)N3CCC(C)CC3)c2)cc1S(=O)(=O)N1CCC(C)CC1 [CBK261743] , respond with its viability at 28.5 h, 10 µM.
95.8

* * *

- measurement.notes: in vitro
- protocol.conditions: human, hela cells, % viability
quantity: viability at 28.5 h, 10 µM (%)
Express it in %; write the number only.

Some solved entries appear below for comparison.
{"molecule": "CSc1nc(O)cc(C(F)(F)F)n1 [CBK001401]", "units.symbol": "%", "viability at 28.5 h, 10 µM": 112}
{"molecule": "CC1(NC(=O)CC2C(=O)NCCN2Cc2cccc(F)c2)CCC1 (stereo not drawn) [CBK281611]", "units.symbol": "%", "viability at 28.5 h, 10 µM": 80.9}

# evaluate next
Given COc1ccc(C(=O)c2c(N)c(C(=O)Nc3ccccc3)c3ccccn23)cc1 [CBK300509] , respond with its viability at 28.5 h, 10 µM.
92.6

* * *

# viability at 28.5 h, 10 µM per entry
- measurement.notes: in vitro
- protocol.conditions: human, hela cells, % viability
Express it in %; write the number only.

Some solved entries appear below for comparison.
{"compound": "Cc1cc2c(=O)n(Cc3ccco3)c(SCc3nc4ccccc4[nH]3)nc2s1 [CBK268202]", "viability at 28.5 h, 10 µM [%]": 88.2}
{"compound": "Cn1ccnc1CN1CCC2(CC1)CC(C(=O)O)N(C(=O)C1CC1)C2 (stereo not shown) [CBK306986]", "viability at 28.5 h, 10 µM [%]": 88.2}

Given O=C(CC1NC(=O)NC1=O)Nc1ccccc1 (stereo not shown) [CBK267331] , respond with its viability at 28.5 h, 10 µM.
90.4

Given COc1ccc(C2CC(=O)C3=C(C2)NC(C)=C(C#N)C3c2cccc(F)c2)cc1 (stereo not shown) [CBK293922] , respond with its viability at 28.5 h, 10 µM.
91.6

Given Cc1ccc(O)c(NC(=S)NC(=O)COc2ccccc2)c1 [CBK264373] , respond with its viability at 28.5 h, 10 µM.
106

Given CC(C)CN1CC(C(=O)NCc2ccccc2-n2ccnc2)CC1=O (stereo not shown) [CBK282189] , respond with its viability at 28.5 h, 10 µM.
104

Given O=C(O)C(Cc1ccccc1)N1C(=O)c2cccc([N+](=O)[O-])c2C1=O (stereo not shown) [CBK115372] , respond with its viability at 28.5 h, 10 µM.
95.8

Given CN1CCN(CC(=O)Nc2sc3c(c2C(=O)Nc2ccccc2)CCCC3)CC1 [CBK268431] , respond with its viability at 28.5 h, 10 µM.
117

Given O=C1NC2(CCN(C(=O)c3ccc(C(F)(F)F)c(F)c3)CC2)Oc2ccc(-c3ccccc3)cc21 [CBK115841] , respond with its viability at 28.5 h, 10 µM.
99.7

Given COc1ccc(-c2cnc(NS(C)(=O)=O)c(C(=O)Nc3cc(C)nn3C)c2)cc1 [CBK076528] , respond with its viability at 28.5 h, 10 µM.
88.2

Given CCOC(=O)c1c(NC(=S)NCc2ccccn2)sc2c1CCCCC2 [CBK266954] , respond with its viability at 28.5 h, 10 µM.
106

Given COCCN(Cc1cc2cccc(C)c2nc1O)S(C)(=O)=O [CBK269395] , respond with its viability at 28.5 h, 10 µM.
99.9

Given CC(=O)N1N=C(c2ccc3c(c2)OCO3)CC1c1ccc(C(=O)O)cc1 (stereo not shown) [CBK286547] , respond with its viability at 28.5 h, 10 µM.
95.4

Given COCCn1c(=O)n(Cc2ccc(F)cc2)c2cccnc21 [CBK283886] , respond with its viability at 28.5 h, 10 µM.
81
